Give measured gMFI, SKW3 WT anti-hu Kappa FITC for each item. Keep answers brief.
SYSTEM: T1, human CD4 on cells (SKW3 cells; human PBMCs) (human, UniProt P01730 26-458)
T1 construct: whole, on cells; The SKW3 CD4 knockout cells served as the negative cell line; also called hCD4
MEASUREMENT DESCRIPTION: FACS confirmation, supernatant on SKW3 WT cells, anti-hu Kappa FITC; background gMFI 2500
Quick note: number first, unit second.

binder="75110_10K21A (antibody, V domains shown, Tested as non-clonal hybridoma supernatant from AlivaMab Mouse Kappa mice, detected with anti-mouse Fc and anti-human Kappa) VH: EVQLVESGGGLVQPGGSLRLSCAASGFTFSSYWMTWVRQAPGKGLEWVANIKQDGSEKYYVDSVKGRFTISRDNAKNSLYLQMNSLRAEDTAVYYCVRDRYDALDIWGQGTMVTVSS VL: AIQMTQSPSSLSASVGDRVTITCRASQGIRNDLNWYQQKPGKAPKLLIYAASSLQSGVPSRFSGSGSGTDFTLTISSLQAEDFATYYCLKDYNYPYTFGQGTKLEIK" endpoint_value="5850 gMFI"
binder="75110_10N21A (antibody, V domains shown, Tested as non-clonal hybridoma supernatant from AlivaMab Mouse Kappa mice, detected with anti-mouse Fc and anti-human Kappa) VH: EVQLVESGGGLVQPGGSLRLSCAASGFTFSSYDMHWVRQVTGKGLEWVSTIGTAGDTYYPGSVKGRFTISRENAKNSLYLQMNSLRAGDTAVYYCARGGYYYYGMDVWGQGTTVTVSS VL: EIVLTQSPGTLSLSPGERATLSCRASQSFISSYLAWYQQKPGQAPRLLIYGASSRATGIPDRFSGSGSGTDFTLTISRLDPEDFAVYYCQQSGNSPFTFGPGTKVDVK" endpoint_value="4060 gMFI"
binder="75110_08H06A (antibody, V domains shown, Tested as non-clonal hybridoma supernatant from AlivaMab Mouse Kappa mice, detected with anti-mouse Fc and anti-human Kappa) VH: EVQLVESGGGLVQPGGSLRLSCAASGFTFSNYDMHWVRQATGKGLEWVSTIGTAGDTYYPGSVKGRFTISRENAKNSLYLQMNSLRAGDTAVYYCARGGYDYYGMDVWGQGTTVTVSS VL: EIVLTQSPGTLSLSPGERATLSCRASQSITSIYLAWYRQKPGQAPRLLIYGASSRATGIPDRFSGSGSGTDFTLTISRLEPEDFAVYYCQQYGSSPFTFGPGTKVDIK" endpoint_value="6270 gMFI"

Now consider the entry below.
-- ask Which gMFI, SKW3 WT anti-hu Kappa FITC is reported for this binder? 75110_08H11A (antibody, V domains shown, Tested as non-clonal hybridoma supernatant from AlivaMab Mouse Kappa mice, detected with anti-mouse Fc and anti-human Kappa) VH: EVQLVESGGGLVQPGGSLRLSCAASGFTFSSYDMHWVRQATGKGLEWVSTIGTAGDTYYPGSVKGRFTISRENAKNSLYLQMNSLRAGDTAVYYCARGGYSYYGMDVWGQGTTVTVSS VL: EIVLTQSPGTLSLSPGERATLSCGASQSVSSTYLAWYQQKPGQAPRLLIYGASSRATGIPDRFSGSGSGTDFTLTISRLEPEDFAVYYCQQFGSSPFTFGPGTKVDIK
-- reply 5230 gMFI
